- experiment_notes: in vitro
- recorded_conditions: human
readout_label: CC50

Sample records with CC50:
molecule | CC50
C[C@H](NC(=O)C(F)(F)F)C(=O)N(C)[C@@H](CC(C)(C)C)C(=O)N1C[C@@]2(C[C@H]1C#N)Oc1cccnc1NC2=O | > 1000 nM
CC(C)C[C@H](C(=O)N1C[C@@]2(C[C@H]1C#N)Oc1ccc(F)cc1NC2=O)N(C)C(=O)[C@H](C)NC(=O)C(F)(F)F [Compound 14b] | > 1000 nM
CN(C(=O)[C@H](CC(F)F)NC(=O)C(F)(F)F)[C@@H](CC1CC1)C(=O)N1C[C@@]2(C[C@H]1C#N)Oc1cc(F)cc(F)c1NC2=O | > 1000 nM

Task item: Would you mind telling me what CC50 value was observed for `CC(C)C[C@@H](C(=O)N1C[C@]2(CCNC2=O)C[C@H]1C#N)N(C)C(=O)[C@H](C)NC(=O)C(F)(F)F` ?
Reply: > 1000 nM

Task item: # query: CC50 of entry `CC(C)C[C@@H](C(=O)N1C[C@@]2(C[C@H]1C#N)N=C(c1ccccc1)NC2=O)N(C)C(=O)[C@H](C)NC(=O)C(F)(F)F`
Reply: > 1000 nM

Task item: State the recorded CC50 for this entry: `C[C@H](NC(=O)C(F)(F)F)C(=O)N(C)[C@@H](CC1(C)CC1)C(=O)N1C[C@@]2(C[C@H]1C#N)Oc1cccnc1NC2=O`
Reply: > 1000 nM

Task item: Fill blank: measured CC50 of the molecule `CN(C(=O)[C@H](CC1CC1)n1cc(C(F)(F)F)nn1)[C@@H](CC1CC1)C(=O)N1C[C@@]2(C[C@H]1C#N)Oc1cc(F)cc(F)c1NC2=O` is ____.
Reply: > 1000 nM

Task item: State the recorded CC50 for this entry: CN(C(=O)[C@H](CC1CC1)NC(=O)C(F)(F)F)C(CC1CC1)C(=O)N1C[C@]2(Cc3ccccc3NC2=O)C[C@H]1C#N (stereo in doubt)
Reply: > 1000 nM

Task item: Report CC50 for `CN(C(=O)[C@H](CC(F)(F)F)NC(=O)C(F)(F)F)[C@@H](CC1CC1)C(=O)N1C[C@@]2(C[C@H]1C#N)Oc1cccnc1NC2=O` please.
Reply: > 1000 nM

Task item: Would you mind telling me what CC50 value was observed for `C[C@@H](OC(C)(C)C)[C@H](NC(=O)C(F)(F)F)C(=O)N(C)[C@@H](CC1CC1)C(=O)N1C[C@@]2(C[C@H]1C#N)Oc1cc(F)cc(F)c1NC2=O` ?
Reply: > 1000 nM

Task item: For the molecule shown here, `CN(C(=O)c1cc2cccnc2[nH]1)[C@@H](CC1CC1)C(=O)N1C[C@@]2(C[C@H]1C#N)Oc1cc(F)cc(F)c1NC2=O` , give the reported CC50.
Reply: > 1000 nM

Task item: Using the record for `CC(C)C[C@@H](C(=O)N1C[C@@]2(C[C@H]1C#N)Oc1c(F)cc(F)cc1NC2=O)N(C)C(=O)[C@H](C)NC(=O)C(F)(F)F` , report its CC50.
Reply: > 1000 nM

----------
Recorded IC50, one value per entry.
- assayed_target: SARS-Cov-2 3CLpro (Severe acute respiratory syndrome coronavirus 2, UniProt P0DTD1)
- experiment_notes: biochemical
- recorded_conditions: Table A, class symbols, read-out: SARS-Cov-2 (IC50)

Example entries begin here.
mol_smiles | reading
CN(C(=O)[C@H](CC1CC1)NC(=O)C(F)(F)Cl)[C@@H](CC1CC1)C(=O)N1C[C@@]2(C[C@H]1C#N)Oc1ncccc1NC2=O | < 20 nM
C[C@H](NC(=O)C(F)(F)F)C(=O)N(C)[C@@H](CC1(C)CC1)C(=O)N1C[C@@]2(C[C@H]1C#N)Oc1cccnc1NC2=O | < 20 nM

Task item: What value of IC50 has been recorded for this entry: `COc1ccc(Cl)c2[nH]c(C(=O)N(C)[C@@H](CC3CC3)C(=O)N3C[C@@]4(C[C@H]3C#N)Oc3cc(F)cc(F)c3NC4=O)cc12`
Reply: < 20 nM

----------
- experiment_notes: Toxicity testing in A549-dual_ACE2_TMPRSS2 cells without virus (MTS)
- recorded_conditions: human
readout_label: CC50

Task item: Looking for the measured CC50 of `C[C@H](NC(=O)Oc1ccc(F)cc1)C(=O)N(C)[C@@H](CC1CC1)C(=O)N1C[C@@]2(C[C@H]1C#N)Oc1cc(F)cc(F)c1NC2=O` , can you help?
Reply: > 1 µM

----------
- assayed_target: UniProt P0DTD1
- experiment_notes: biochemical
- recorded_conditions: Table A, class symbols, read-out: SARS-Cov-2 (IC50)
readout_label: IC50

molecule | IC50
CC(C)C[C@@H](C(=O)N1C[C@]2(Cc3ccccc3NC2=O)C[C@H]1C#N)N(C)C(=O)[C@H](C)NC(=O)C(F)(F)F [Example 32] | < 20 nM
CN(C(=O)C(O)C(C)(C)C)[C@@H](CC1CC1)C(=O)N1C[C@@]2(C[C@H]1C#N)Oc1cc(F)cc(F)c1NC2=O (stereo partly drawn) [Compound 138] | < 20 nM

Task item: Could you tell me which IC50 is on file for CC(C)C[C@@H](C(=O)N1C[C@@]2(C[C@H]1C#N)Oc1cc(Cl)cc(F)c1NC2=O)N(C)C(=O)[C@H](C)NC(=O)C(F)(F)F [Compound 58] ?
Reply: < 20 nM

----------
compounds and their reported pIC50
- assayed_target: SARS-Cov-2 3CLpro (Severe acute respiratory syndrome coronavirus 2, UniProt P0DTD1)
- experiment_notes: biochemical
- recorded_conditions: Table A, class symbols, read-out: SARS-Cov-2 (IC50)
pIC50: −log10 of the molar value.

In the examples that follow, each entry is paired with its recorded pIC50.
compound | assayed_target | readout_label | reading
CN(C(=O)[C@@H]1CCN(C(=O)C(F)(F)F)C1)[C@@H](CC1CC1)C(=O)N1C[C@@]2(C[C@H]1C#N)Oc1cc(F)cc(F)c1NC2=O | SARS-Cov-2 3CLpro (Severe acute respiratory syndrome coronavirus 2, UniProt P0DTD1) | pIC50 | 5.70 to 6.70
CN(C(=O)[C@H](CC1CC1)NC(=O)C(F)(F)F)[C@@H](CC1CC1)C(=O)N1C[C@@]2(C[C@H]1C#N)Oc1ccc(F)cc1CNC2=O | SARS-Cov-2 3CLpro (Severe acute respiratory syndrome coronavirus 2, UniProt P0DTD1) | pIC50 | > 7.70

Let's switch to this compound now.
Task item: For the compound shown here, `CC(C)C[C@@H](C(=O)N1C[C@]2(C[C@H]1C#N)OC(=O)Nc1ccccc12)N(C)C(=O)c1cc2c(F)cc(F)cc2[nH]1` , give the reported pIC50.
Reply: 5.70 to 6.70

----------
- Test system: SARS-CoV-2 B.1.1.7 lineage
- experiment_notes: microbe, parasite or virus in culture
- Type: cell-based
- recorded_conditions: Severe acute respiratory syndrome coronavirus 2; Table C; SARS-CoV-2 B.1.1.7 in A549-dual_ACE2_TMPRSS2 cells, class symbols; read-out: A549-dual_ACE2_TMPRSS2 (EC50)
pEC50: −log10 of the molar value.
pEC50 values, listed per item

In the examples that follow, each entry is paired with its recorded pEC50.
compound | pEC50
CN(C(=O)[C@H](CC1CC1)NC(=O)C(F)(F)F)[C@@H](CC1CC1)C(=O)N1C[C@@]2(C[C@H]1C#N)Oc1ccccc1C(C)(C)NC2=O [Compound 228] | 6.00 to 7.00
CN(C(=O)[C@H](CC1CCC1)NC(=O)C(F)(F)F)[C@@H](CC1CC1)C(=O)N1C[C@@]2(C[C@H]1C#N)Oc1ncccc1NC2=O [Compound 203] | > 7.00

Could you now consider this next compound?
Task item: Value wanted: pEC50 (SARS-CoV-2 B.1.1.7 lineage) of entry C[C@@H](C(=O)N(C)[C@@H](CC1CC1)C(=O)N1C[C@@]2(C[C@H]1C#N)Oc1cccnc1NC2=O)n1cc(C2CC2)nn1 [Compound 155]
Reply: 6.00 to 7.00

----------
- System: SARS-CoV-2 B.1.1.7 lineage
- experiment_notes: microbe, parasite or virus in culture
- Format: cell-based
- recorded_conditions: Severe acute respiratory syndrome coronavirus 2; Table C; SARS-CoV-2 B.1.1.7 in A549-dual_ACE2_TMPRSS2 cells, class symbols; read-out: A549-dual_ACE2_TMPRSS2 (EC50)
pEC50: −log10 of the molar value.
readout_label: pEC50

mol_smiles | reading
C[C@H](NC(=O)C1(F)CC1)C(=O)N(C)[C@@H](CC1CC1)C(=O)N1C[C@@]2(C[C@H]1C#N)Oc1cccnc1NC2=O | 6.00 to 7.00
CC(C)C[C@@H](C(=O)N1C[C@]2(Cc3ccccc3NC2=O)C[C@H]1C#N)N(C)C(=O)[C@H](C)NC(=O)C(F)(F)F | 6.00 to 7.00
CC(C)C[C@@H](C(=O)N1C[C@@]2(C[C@H]1C#N)Oc1c(F)cc(F)cc1NC2=O)N(C)C(=O)[C@H](C)NC(=O)C(F)(F)F | 6.00 to 7.00
CN(C(=O)[C@@H](NC(=O)C(F)(F)F)C12CC(C1)C2)[C@@H](CC1CC1)C(=O)N1C[C@@]2(C[C@H]1C#N)Oc1cccnc1NC2=O | 6.00 to 7.00
CC(C)C[C@@H](C(=O)N1C[C@@]2(C[C@H]1C#N)N=C(c1ccccc1)NC2=O)N(C)C(=O)[C@H](C)NC(=O)C(F)(F)F | 5.00 to 6.00

// switching to the query compound
Task item: Which pEC50 value is on record for `CN(C(=O)[C@@H](Cc1ccc(F)cc1)NC(=O)C(F)(F)F)[C@@H](CC1CC1)C(=O)N1C[C@@]2(C[C@H]1C#N)Oc1cccnc1NC2=O` ?
Reply: > 7.00
